Test: In vivo pharmacokinetic study (absorption and excretion in dogs)
Design: species or system beagles
Conditions: beagle, dog, po, 10 mg/kg; male beagles, per os, 10 mg/mL/kg in 0.5% methyl cellulose, serum
A collection of molecules and their measured Cmax
reported_property: Cmax (ng/mL)

>>> df
                    structure_smiles_string  reported_property  test_result
0  CCNC1CN(c2c(F)cc3c(=O)c(C(=O)O)cn(-c4nc(N)c(F)cc4F)c3c2Br)C1               Cmax         4820
1  CCNC1CN(c2c(F)cc3c(=O)c(C(=O)O)cn(-c4nc(N)c(F)cc4F)c3c2Br)C1.O=C(O)/C=C\C(=O)O               Cmax         3730
2  CNC1CN(c2c(F)cc3c(=O)c(C(=O)O)cn(-c4nc(N)c(F)cc4F)c3c2Br)C1               Cmax         2350

====

A collection of compounds and their measured MIC
Test system: P. vulgaris IFO3167
Experiment: Minimum growth inhibitory concentration (MIC), standard method of the Japan Society of Chemotherapy
Type: cell-based
Settings: Proteus vulgaris
reported_property: MIC (µg/mL)

>>> df
                                   compound  reported_property  test_result
0  CCNC1CN(c2c(F)cc3c(=O)c(C(=O)O)cn(-c4nc(N)c(F)cc4F)c3c2Cl)C1 [Comparative Compound 2]                MIC          0.2
1  C[C@H]1COc2c(N3CCN(C)CC3)c(F)cc3c(=O)c(C(=O)O)cn1c23 [LVFX]                MIC         0.05
2  O=C(O)c1cn(C2CC2)c2cc(N3CCNCC3)c(F)cc2c1=O [CPFX]                MIC         0.05
3  CCNC1CN(c2c(F)cc3c(=O)c(C(=O)O)cn(-c4nc(N)c(F)cc4F)c3c2Br)C1 [Compound 1]                MIC          0.1
4  CNC1CN(c2c(F)cc3c(=O)c(C(=O)O)cn(-c4nc(N)c(F)cc4F)c3c2Br)C1 [Comparative Compound 1]                MIC          0.1

====

Experiment: In vivo pharmacokinetic study (absorption and excretion in dogs)
Design: species or system beagles
Conditions: beagle, dog, po, 10 mg/kg; male beagles, per os, 10 mg/mL/kg in 0.5% methyl cellulose, serum
reported_property: AUC(0-t) (ng·h/mL)

In [3]: df
Out[3]:
                    structure_smiles_string  test_result
0  CCNC1CN(c2c(F)cc3c(=O)c(C(=O)O)cn(-c4nc(N)c(F)cc4F)c3c2Br)C1.O=C(O)/C=C\C(=O)O        17600
1  CCNC1CN(c2c(F)cc3c(=O)c(C(=O)O)cn(-c4nc(N)c(F)cc4F)c3c2Br)C1        22800
2  CNC1CN(c2c(F)cc3c(=O)c(C(=O)O)cn(-c4nc(N)c(F)cc4F)c3c2Br)C1         8540
